Measured values drawn from ChEMBL document CHEMBL1144497 for this set.

Target: Liver carboxylesterase 1 (Homo sapiens, UniProt P23141)
Sequence (P23141 whole entry): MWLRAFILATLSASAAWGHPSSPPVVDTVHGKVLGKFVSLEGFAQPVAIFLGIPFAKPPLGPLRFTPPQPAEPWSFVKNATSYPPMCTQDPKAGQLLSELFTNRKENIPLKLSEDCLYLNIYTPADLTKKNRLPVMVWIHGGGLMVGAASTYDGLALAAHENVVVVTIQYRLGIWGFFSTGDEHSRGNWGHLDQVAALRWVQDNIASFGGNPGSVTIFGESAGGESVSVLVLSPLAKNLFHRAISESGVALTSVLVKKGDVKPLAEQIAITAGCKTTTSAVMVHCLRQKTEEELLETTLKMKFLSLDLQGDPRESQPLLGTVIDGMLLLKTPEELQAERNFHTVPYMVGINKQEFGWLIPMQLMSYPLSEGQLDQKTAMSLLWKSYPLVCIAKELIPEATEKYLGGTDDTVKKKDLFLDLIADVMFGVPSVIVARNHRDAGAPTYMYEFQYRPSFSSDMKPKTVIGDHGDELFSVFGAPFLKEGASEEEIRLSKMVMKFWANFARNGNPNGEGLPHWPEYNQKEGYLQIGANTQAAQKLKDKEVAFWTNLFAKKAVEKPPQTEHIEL
Assay: Activity of human recombinant carboxylesterase 1 assessed as AUDA hydrolysis
Design: scale not given: the % may be the effect or the level left
parameter: Activity (%)

Solved cases (2 shown):
{"structure smiles string": "CCCCOC(=O)CCCCCCCCCCCNC(=O)NC12CC3CC(CC(C3)C1)C2", "unit name": "%", "Activity": 41}
{"structure smiles string": "CC(C)OC(=O)CCCCCCCCCCCNC(=O)NC12CC3CC(CC(C3)C1)C2", "unit name": "%", "Activity": 72}

P. O=C(O)CCCCCCCCCCCNC(=O)NC12CC3CC(CC(C3)C1)C2
Q. CC(C)COC(=O)CCCCCCCCCCCNC(=O)NC12CC3CC(CC(C3)C1)C2
(Q) Lab note: record which item had the higher Activity, P or Q . Pick one; state its label.
(A) P
(P: 100%, Q: 55%)

* * *

Test: Solubility in oil
Format: physicochemical
parameter: solubility (mg/mL)

{"molecule": "CCC(C)OC(=O)CCCCCCCCCCCNC(=O)NC12CC3CC(CC(C3)C1)C2 (stereo unspecified)", "solubility (mg/mL)": 27}
{"molecule": "CC(C)COC(=O)CCCCCCCCCCCNC(=O)NC12CC3CC(CC(C3)C1)C2", "solubility (mg/mL)": 17}
{"molecule": "CC(C)OC(=O)CCCCCCCCCCCNC(=O)NC12CC3CC(CC(C3)C1)C2", "solubility (mg/mL)": 12}

I. CCCCCCCCC(NC(=O)CCCCCCCCCCCNC(=O)NC12CC3CC(CC(C3)C1)C2)C(=O)N[C@H]1O[C@@H](CO)[C@H](O)[C@@H](O)[C@@H]1O (stereo partly specified)
II. O=C(O)CCCCCCCCCCCNC(=O)NC12CC3CC(CC(C3)C1)C2
(Q) Which record shows the lower solubility: the first, I , or the second, II ? Pick one; state its label.
(A) I

* * *

Molecular target: Bifunctional epoxide hydrolase 2 (Homo sapiens)
Sequence (P34913 whole entry): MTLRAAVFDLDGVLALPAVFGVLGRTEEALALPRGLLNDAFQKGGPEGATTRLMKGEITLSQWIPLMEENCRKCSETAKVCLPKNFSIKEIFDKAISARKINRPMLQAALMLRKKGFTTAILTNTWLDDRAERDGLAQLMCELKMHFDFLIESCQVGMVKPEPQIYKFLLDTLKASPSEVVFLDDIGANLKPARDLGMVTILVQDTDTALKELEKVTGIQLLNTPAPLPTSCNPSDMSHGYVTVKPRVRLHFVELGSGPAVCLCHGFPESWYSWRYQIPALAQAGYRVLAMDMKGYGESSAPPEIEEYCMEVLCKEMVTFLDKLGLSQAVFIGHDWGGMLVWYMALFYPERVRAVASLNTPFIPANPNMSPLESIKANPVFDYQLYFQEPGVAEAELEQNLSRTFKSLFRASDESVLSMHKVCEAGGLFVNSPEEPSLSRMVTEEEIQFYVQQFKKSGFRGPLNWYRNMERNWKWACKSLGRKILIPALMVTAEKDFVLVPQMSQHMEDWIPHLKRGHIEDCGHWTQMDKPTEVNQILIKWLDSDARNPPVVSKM
Assay: Inhibition of human soluble epoxide hydrolase by spectrometric based assay
pIC50: −log10 of the molar value.
parameter: pIC50

P. CCCCCCCCC(NC(=O)CCCCCCCCCCCNC(=O)NC12CC3CC(CC(C3)C1)C2)C(=O)N[C@H]1O[C@@H](CO)[C@H](O)[C@@H](O)[C@@H]1O (stereo partly drawn)
Q. O=C(CCCCCCCCCCCNC(=O)NC12CC3CC(CC(C3)C1)C2)NCC(=O)N[C@H]1O[C@@H](CO)[C@H](O)[C@@H](O)[C@@H]1O
(Q) Which record shows the lower pIC50: the first, P , or the second, Q ? Pick one; state its label.
(A) Q

* * *

Test system: Mus musculus
Assay: Cmax in Swiss Webster mouse at 5 mg/kg, po
Assay type: ADME, organism-based
Design: dose 5 mg/kg, route oral
Details: in vivo
parameter: Cmax (ng/mL)

Solved cases (3 shown):
{"compound": "CC(C)COC(=O)CCCCCCCCCCCNC(=O)NC12CC3CC(CC(C3)C1)C2", "recorded result": 42.9}
{"compound": "CCCCOC(=O)CCCCCCCCCCCNC(=O)NC12CC3CC(CC(C3)C1)C2", "recorded result": 39.5}
{"compound": "CC(C)OC(=O)CCCCCCCCCCCNC(=O)NC12CC3CC(CC(C3)C1)C2", "recorded result": 29.6}

I. CCC(C)OC(=O)CCCCCCCCCCCNC(=O)NC12CC3CC(CC(C3)C1)C2 (stereo not given)
II. O=C(O)CCCCCCCCCCCNC(=O)NC12CC3CC(CC(C3)C1)C2
(Q) Which record shows the lower Cmax: the first, I , or the second, II ? Pick one; state its label.
(A) I

* * *

Test: Solubility in sodium phosphate buffer at pH 7.4
Format: physicochemical
parameter: solubility (µg/mL)

{"compound": "O=C(O)CCCCCCCCCCCNC(=O)NC12CC3CC(CC(C3)C1)C2", "solubility [µg/mL]": 35}

P. CCC(C)OC(=O)CCCCCCCCCCCNC(=O)NC12CC3CC(CC(C3)C1)C2 (stereo not drawn)
Q. CC(C)COC(=O)CCCCCCCCCCCNC(=O)NC12CC3CC(CC(C3)C1)C2
(Q) Lab note: record which item had the higher solubility, P or Q . Pick one; state its label.
(A) P
(P: 5 µg/mL, Q: 1.7 µg/mL)
